target: Aβ 1-40 (Homo sapiens); construct: ThT aggregation assays of Aβ 1-40 and alpha synuclein; experiment: ThT aggregation assay of Aβ 1-40; assay type: biochemical
This section presents compounds with their documented IC50 values.

Compound: O=C(COc1ccccc1)Nc1ccc2c(c1)C(=O)NC2=O
IC50: > 20 µM
--
Compound: COc1ccc(CC(=O)Nc2ccc(S(=O)(=O)Nc3nc(C)cc(C)n3)cc2)cc1
IC50: > 50 µM
--
Compound: COc1ccc(N(C)S(=O)(=O)c2ccc(NS(=O)(=O)c3cccs3)cc2)c(OC)c1
IC50: > 20 µM
--
Compound: COc1ccc(NS(=O)(=O)c2ccc(NS(=O)(=O)c3cccs3)cc2)c(OC)c1
IC50: > 50 µM
--
Compound: COc1ccccc1NC(=O)C1CC(O)CN1C(=O)OCc1ccccc1 (stereo not shown)
IC50: > 20 µM

Prompt: Please tell me: IC50 of `O=C(CNC(=O)c1ccccc1)N/N=C/c1c[nH]nc1-c1ccccc1` , system Aβ 1-40 (Homo sapiens)?
Completion: > 20 µM

Prompt: Entry to check: `CCOC(=O)c1c(NC(=O)c2cccc([N+](=O)[O-])c2C)sc2c1CCC2`
Completion: > 20 µM

----------
biological target: Aβ 1-40 (Homo sapiens, UniProt P05067); construct: ThT aggregation assays of Aβ 1-40 and alpha synuclein; experiment: ThT aggregation assay of Aβ 1-40; format: biochemical
Sequence (P05067 672-711 limits assumed): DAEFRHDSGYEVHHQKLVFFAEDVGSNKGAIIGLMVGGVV
This section presents compounds with their documented IC50 values.

Study these solved cases before continuing.
Compound: COc1ccc(NS(=O)(=O)c2ccc(NS(=O)(=O)c3ccc(Br)s3)cc2)c(OC)c1
Test value: > 50 µM
//
Compound: COc1ccc(C2(C(=O)Nc3ccc(S(=O)(=O)Nc4ncccn4)cc3)CCCC2)cc1OC
Test value: > 50 µM
//
Compound: COc1ccc2cc(C(C)N)ccc2c1 (centres unmarked)
Test value: > 100 µM
//
Compound: c1ccc2c(c1)CCCC2NCc1ccncc1 (centres unmarked)
Test value: > 100 µM
//
Compound: Cc1ccc(N(C)C(=O)C2CC(O)CN2C(=O)OCC(C)C)cc1C (centres unmarked)
Test value: > 20 µM
//
Compound: COc1ccc2ccccc2c1/C=N/c1ccc(S(N)(=O)=O)cc1
Test value: > 20 µM

Prompt: Need IC50 of `CC(C)(O)C#Cc1ccc(C(=O)N2CCN(c3ncccn3)CC2)cc1` , thanks.
Completion: > 20 µM

Prompt: Entry to check: `COc1ccc(CNCc2ccc(F)cc2)cc1OC`
Completion: > 100 µM

Prompt: Entry to check: CC1=NNC(=O)C1CC(=O)N/N=C/c1cccc(OCc2ccccc2)c1 (centres unmarked)
Completion: > 20 µM

Prompt: Entry to check: `COc1ccccc1N1CCN(C(=O)CN(c2ccc(F)cc2)S(=O)(=O)c2ccccc2)CC1`
Completion: > 20 µM

Prompt: Entry to check: `Cc1sc(/C=N/NC(=O)c2cccc([N+](=O)[O-])c2)cc1[N+](=O)[O-]`
Completion: > 20 µM
